Item-by-item account of log P
- experimental-protocol: logP determination by HPLC on a reversed-phase column (C18)
- Assay type: physicochemical
- experimental-conditions: HPLC-MS, reversed-phase column (C18); Table I-T3

INSERT INTO assay_data (compound, test_result) VALUES
  ('N#CC1(NC(=O)c2cc(-c3cnn(-c4c(Br)cc(C(F)(C(F)(F)F)C(F)(F)F)cc4C(F)(F)F)c3)ccc2Cl)CC1 [I-T3-155]', 4.4),
  ('CCS(=O)(=O)c1cc(C(F)(C(F)(F)F)C(F)(F)F)cc(C)c1-n1cc(-c2ccc(Cl)c(C(=O)NC3CC3)c2)cn1 [I-T3-210]', 3.9),
  ('N#CC1(NC(=O)c2cc(-c3cnn(-c4c(Cl)cc(C(F)(F)F)cc4[N+](=O)[O-])c3)ccc2Cl)CC1 [I-T3-169]', 3.2),
  ('Cc1cc(C(F)(C(F)(F)F)C(F)(F)F)cc(C)c1-n1cc(-c2cnc(C3CC3)c(C(=O)N(C)C3CC3)c2)cn1 [I-T3-142]', 4.6),
  ('Cc1cc(C(F)(C(F)(F)F)C(F)(F)F)cc(C(F)(F)F)c1-n1cc(-c2cnc(C)c(C(=O)N(C)C3(C#N)CC3)c2)cn1 [I-T3-123]', 3.9);

Requested field: log P. Item: O=C(NC1CC1)c1cccc(-c2cnn(-c3ncc(C(F)(F)F)cc3Cl)c2)c1 [I-T3-122]
3.0

What about this compound? CCS(=O)(=O)c1cc(C(F)(C(F)(F)F)C(F)(F)F)cc(C)c1-n1cc(-c2ccc(Cl)c(C(=O)NC3(C#N)CC3)c2)cn1 [I-T3-209]
3.8
